# System: PC-3 prostate
# EXPERIMENTAL_DETAILS: NCI tumour cell line growth inhibition, 48 h
MEASURED_QUANTITY: TGI

Worked examples, 3 compounds total:
1. Cc1ccc2occ/c(=N\Nc3ccccc3)c2c1; > 100 µM
2. CC1CC(Nc2ccc(Br)cc2)N(C(=O)c2ccc(Br)cc2)O1 (centres undefined); > 10 µM
3. CS(=O)(=O)N1CC(CCl)c2ccc(O)cc21 (centres undefined); 5.88 µM

[ask] Which TGI is listed for C=C1C(=O)OC2C1CC(OC(C)=O)/C(C)=C/CCC1(C)OC21 (centres undefined) ?
[reply] > 100 µM

====

# Test system: HCT-116 colon
# EXPERIMENTAL_DETAILS: NCI tumour cell line growth inhibition, 48 h; in the data active = GI50 below about 0.43 µM; inactive = the rest
Please answer using one outcome listed in YES = active, NO = inactive

// below: answered compounds
1) COc1cc2c3c(n(CCCN(C)CCO)c(=O)c2cc1OC)-c1cc2c(cc1C3=O)OCO2; NO
2) CCOC(=O)C1=C(N)Oc2c(sc3c(C)cccc23)C1c1ccc(F)cc1 (stereo unspecified); NO

Field: next compound
[ask] Hi team, can someone confirm the assay call for "O=C(CCN1CCOCC1)Nc1cccc(-n2cc(-c3ccncc3)c(-c3ccc(Cl)c(O)c3)n2)c1" ?
[reply] NO

====

Listed here: items and their measured TGI.
# System: KM12 colon
# EXPERIMENTAL_DETAILS: NCI tumour cell line growth inhibition, 48 h
Response body: numeric value in µM, unit text excluded.

1) CCOC(=O)C(NC(=O)c1ccccc1)(N1CCN(c2cc3c(cc2F)c(=O)c(C(=O)O)cn3C2CC2)CC1)C(F)(F)F (stereo not given); 31.7

Let us move to another entry and its TGI.
[ask] Give the measured TGI of "NCCCn1c2c(c3ccccc3c1=O)C(=O)c1ccccc1-2" .
[reply] 2.65

====

# Tested on: NCI-H460 lung
# EXPERIMENTAL_DETAILS: NCI tumour cell line growth inhibition, 48 h
Give True when the value for TGI is at least 40 µM. Give False when it is less.

Illustrative cases are given below, each with its answer.
1) Cc1ccnc2c1C(=O)C1=C(OC(C)(C)CC1O)C2=O (stereo unspecified); False
2) CC1=NC(C)(COC(=O)C2(C)NC(C)(CO)CO2)COC1=O (stereo unspecified); True

[ask] hey, is TGI for this one >= 40 µM? "N[C@H](Cc1ccc2oc3cc(=O)c4ccccc4c-3nc2c1)C(=O)O"
[reply] True

[ask] Test whether the molecule "NCCCOc1cc2ccccc2cc1C(=O)NCCCOc1cc2ccccc2cc1C(=O)Nc1ccc(Cl)cc1O" records TGI of 40 µM or higher.
[reply] False

====

Measured TGI by item
# Test system: DMS 273 small cell lung
# EXPERIMENTAL_DETAILS: NCI tumour cell line growth inhibition, 48 h

// solved cases for TGI follow
1) CCc1cccc(C)c1NC(=O)CC1C(=O)Nc2ccccc2S1=O (stereo unspecified); > 100 µM
2) CCOc1ccc(N=Cc2c3ccccc3nc3ccccc23)cc1; > 100 µM
3) COc1cc(/C=N\O[Si](C)(C)C(C)(C)C)ccc1O[Si](C)(C)C(C)(C)C; > 100 µM
4) COc1ccc(C2COc3c(ccc(O)c3C)C2)cc1OC (stereo unspecified); 199 µM
5) O=C1CC2CCN(C(=O)c3ccccc3)CC2CCN1 (stereo unspecified); > 100 µM

Now for another entry.
[ask] Bench note: what TGI did CC(=O)OC(CCC1(C)OC1COc1ccc(CCNC(=O)C=C(C)C)cc1)C(C)(C)OC(C)=O (stereo unspecified) show?
[reply] > 100 µM
